Reported Total Flux, Lung is given for each of the following compounds.
System: modified luciferase
experiment: Luciferase expression in liver, lung, spleen and femur 6 hours after intravenous administration to mice
Format: in vivo
experimentalContext: lung, 6 hours after intravenous 0.5 mpk, mice
Answer as a number with no unit attached.

Check out these entries, answers already filled in.
compound	measValue
CCCCCCCCCOC(=O)CCCCCCCN(C)CCCCCCCC(=O)OC(CCCCCCCC)CCCCCCCC [Compound 123]	1.78E+06
CCCCCCCCCOC(=O)CCCCCCCN(CCCCCCCC(=O)OC(CCCCCCCC)CCCCCCCC)CCN1CCOCC1 [Compound 103]	2.06E+05
CCCCC/C=C\C/C=C\CCCCCCCCN(CCO)CCCCCCCC(=O)OC(CCCCCCCC)CCCCCCCC [Compound 6]	4.30E+06

// switching to the query compound
Which Total Flux, Lung is reported for this compound? CCCCCCCCCCCOC(=O)CCCCCN(CCO)CCCCCCCC(=O)OC(CCCCCCCC)CCCCCCCC [Compound 25]
1.51E+07

---

experiment: Particle size and polydispersity index of nanoparticle compositions (Zetasizer Nano ZS)
Assay type: physicochemical
experimentalContext: Table 1A; lipid:DSPC:cholesterol:PEG-DMG 50:10:38.5:1.5 mol %
valueType: Size (nm)
Answer in nm, number only, no unit symbol.

Use the examples below as a reference point.
molecule	Size [nm]
CCCCCCCCC(CCCCCCCC)OC(=O)CCCCCCCN(C)CCCCCCCC(=O)OC(CCCCCCCC)CCCCCCCC	61.3
CCCCCCCCC(C)OC(=O)CCCCCCCN(CCO)CCCCCCCOC(=O)C(CCCCCCCC)CCCCCCCC (stereo not shown)	89.5
CCCCCCCCCOC(=O)CCCCCCCN(CCC#N)CCCCCCCC(=O)OC(CCCCCCCC)CCCCCCCC	53.5
CCCCCCCCCOC(=O)CCCCCCCN(CCO)CCCCCCCC(=O)Oc1ccc(CCCCC)cc1	60.8
CCCCCCCCCOC(=O)CCCCCCCN(CCCCCCCC(=O)OC(CCCCCCCC)CCCCCCCC)CCCn1cc(CO)nn1	81.4

Would you mind telling me what Size value was observed for CCCCCCCCC(CCCCCCCC)OC(=O)CCCCCCCN(CCO)CCCCCCCC(=O)OC(CCCCCCCC)C1CC1 (stereo not shown) ?
63.9

Now give it for `CCCCCCCCCOC(=O)CCCCCCCN(CCO)CCCCCCCCCC(CCCCCCCC)CCCCCCCC` too.
83.7

---

experiment: Residual lipid levels in rat liver and spleen (UPLC-MS)
Format: in vivo
experimentalContext: rats, 2 mpk, 48 h; assuming 300 g rat and 15 g liver
Measured % Lipid Remaining in liver, 48 h, 2 mpk, listed per entry.
Report the value in % with no unit label.

Worked examples follow.
compound	% Lipid Remaining in liver, 48 h, 2 mpk / %
CCCCCCCCCN(CCO)CCCCCCCC(=O)OC(CCCCCCCC)CCCCCCCC	14
CCCCCCCCC(C)OC(=O)CCCCCCCN(CCO)CCCCCCCC(=O)OC(CCCCCCCC)CCCCCCCC (stereo not shown)	7.22
CCCCCCCCC(CCC)OC(=O)CCCCCCCN(CCO)CCCCCCCC(=O)OC(CCCCCCCC)CCCCCCCC (stereo not shown)	15.9
CCCCCC/C=C\COC(=O)CCCCCCCN(CCO)CCCCCCCC(=O)OC(CCCCCCCC)CCCCCCCC	0.016
CCCCCCCCCCCOC(=O)CCCCCN(CCO)CCCCCCCC(=O)OC(CCCCCCCC)CCCCCCCC	1.32
CCCCCCCCC(CC)OC(=O)CCCCCCCN(CCO)CCCCCCCC(=O)OC(CCCCCCCC)CCCCCCCC (stereo not shown)	12.6
CCCCCCCCCOC(=O)CCCCCCCN(CCO)CCCCCCCC(=O)OC(CCCCCCCC)CCCCCCCC	0.018
CCCCCCCCCOC(=O)CCCN(CCO)CCCCCCCC(=O)OC(CCCCCCCC)CCCCCCCC	20

// below: % Lipid Remaining in liver, 48 h, 2 mpk requested for another compound
Need % Lipid Remaining in liver, 48 h, 2 mpk, item CCCCCC=CCC=CCCCCCCCCC(CCCCCCCCC=CCC=CCCCCC)OC(=O)CCCN(C)C (stereo not shown) [MC3, reference compound]
87

---

Measured Total Flux, Liver values are reported for all entries that follow.
Test system: modified luciferase
experiment: Luciferase expression in liver, lung, spleen and femur 6 hours after intravenous administration to mice
Format: in vivo
experimentalContext: liver, 6 hours after intravenous 0.5 mpk, mice
Give the value as a plain number.

compound	Total Flux, Liver
CCCC/C=C\CCC(CC/C=C\CCCC)OC(=O)CCCCCCCN(CCO)CCCCCCCC(=O)OCCCCCCCCC	1.54E+09
CCCCCCCCCCCOC(=O)CCCCCN(CCO)CCCCCCCC(=O)OC(CCCCCCCC)CCCCCCCC	2.41E+09
CCCCCCCCC(C)OC(=O)CCCN(CCO)CCCCCCCC(=O)OC(CCCCCCCC)CCCCCCCC (stereo not shown)	8.55E+08

We now examine a further compound.
Please report the recorded Total Flux, Liver for `CCCCCCCCC(CCCCCCCC)OC(=O)CCCCCCCN(C)CCCCCCCC(=O)OC(CCCCCCCC)CCCCCCCC` .
8.46E+06

---

experiment: Lipid clearance: mouse liver tissue level and % dose remaining in liver after intravenous administration
Assay type: in vivo
experimentalContext: mouse, liver, 0.5 mg/kg, 24 h
valueType: concentration at 24 h (ng/g)
Expressed in ng/g, but write only the number.

The cases that follow already have their concentration at 24 h on record.
compound	concentration at 24 h / ng/g
CCCCCCCCC(CCCCCCCC)OC(=O)CCCCCCCN(CCO)CCCCCCCC(=O)OCC(C)CCCCCCC (stereo not shown)	0
CCCCCCCCC(CCCCCCCC)C(=O)OCCCCCCCN(CCO)C(C)CCCCCCCCOC(=O)CCCCCCC (stereo not shown)	0
CCCCCCCCCOC(=O)CCCCCCCN(CCO)CCCCCCCC(=O)OC(COCCCCCC)COCCCCCC	0
CCCCCCCCC(CCCCCCCC)OC(=O)CCCCCCCN(CCO)CCCCCCCC(=O)O[C@H](C)CCCCCCCC	2990
CCCCCCCCCCCOC(=O)CCCCCN(CCO)CCCCCC(=O)OC(CCCCCCCCCC)CCCCCCCCCC	27000

What value of measured concentration at 24 h is listed for CCCCCCCCC(CCCCCCCC)OC(=O)CCCCCCCN(CCO)C(C)CCCCCCCCOC(=O)CCCCCCC (stereo not shown) ?
0

Param item: CCCCCCCCCOC(=O)C(C)CCCCCCN(CCO)CCCCCCCOC(=O)C(CCCCCCCC)CCCCCCCC (stereo not shown)
17900

---

Measured Size by item
experiment: Particle size and polydispersity index of nanoparticle compositions (Zetasizer Nano ZS)
Type: physicochemical
experimentalContext: Table 1A; lipid:DSPC:cholesterol:PEG-DMG 50:10:38.5:1.5 mol %
State the answer as a number, implicitly in nm.

Known Size results, listed for orientation:
compound	Size / nm
CCCCCCCCCN(CCCO)CCCCCCCC(=O)OC(CCCCCCCC)CCCCCCCC	118.9
CCCCCCCCCOC(=O)CCCCCCCN(CCO)CCCCCCCC(=O)OC(CCCCC)CCCCCCCC (stereo not drawn)	107.3
CCCCCCCCCOC(=O)CCCCCCCN(CCCCCCCC(=O)OC(CCCCCCCC)CCCCCCCC)CC(C)O (stereo not drawn)	102.9
CCCCCCCCCOC(=O)CCCCCCCN(CCCCCCCC(=O)OC(CCCCCCCC)CCCCCCCC)CC(O)CO (stereo not drawn)	77.2
CCCCCCCCCCCOC(=O)CCCCCN(CCO)CCCCCCCC(=O)N(CCCCCCCC)CCCCCCCC	86.3

Give the measured Size of `CCCCCCCCCOC(=O)CCCCCCCN(CCCCCCCC(=O)OC(CCCCCCCC)CCCCCCCC)CCCNC(=O)CO` .
84.2

Repeat for the following compound: `CCCCCCCCCOC(=O)CCCCCCCN(CCCCCCCC(=O)OC(CCCCCCCC)CCCCCCCC)CCCNC(=S)N(C)C`
116.7

Lookup `CCCCCCCCCOC(=O)CCCCCCCN(CCCCCCCC(=O)OC(CCCCCCCC)CCCCCCCC)CCCN/C(=N/[N+](=O)[O-])NC`
76.2

---

experiment: in vivo
experimentalContext: male, Sprague-Dawley, rat, iv
valueType: half-life (h)
Express your answer in h, writing the number without its unit.

Entry `CCCCCCCCCOC(=O)CCCCCCCN(CCO)CCCCCCCC(=O)OC(CCCCCCCC)CCCCCCCC` has what half-life?
5.8

---

Test system: IL-6, IP-10
experiment: Cytokine induction (IL-6, IP-10) in mice 6 hours after intravenous administration
Format: in vivo
Set-up: unit not given here
experimentalContext: intravenous 0.5 mpk
Parameter Cytokine induction, IL-6: see the listing below.
Number only, no unit.

Solved entries:
CCCCC/C=C\C/C=C\CCCCCCCCN(CCO)CCCCCCCC(=O)OC(CCCCCCCC)CCCCCCCC 136.18
CCCCCCCCCOC(=O)CCCCCCCN(CCO)CCCCCCCOC(=O)C(CCCCCCCC)CCCCCCCC 152.51
CCCCCCCCCOC(=O)CCCN(CCO)CCCCCCCC(=O)OC(CCCCCCCC)CCCCCCCC 273.56
CCCCCCCCCCCOC(=O)CCCCCN(CCO)CCCCCCCC(=O)OC(CCCCCCCC)CCCCCCCC 233.45

Need Cytokine induction, IL-6, item `CCCCCCCCCCCCCCCCCCN(CCO)CCCCCCCC(=O)OC(CCCCCCCC)CCCCCCCC`
267.24
